Consider the following molecules and their measured melting point readings.

Below are worked cases with known answers.
Prompt: Can you share its melting point? I mean this molecule: O=S(=O)(c1ccc2c(c1)CCC2)N1CCNCC1
Completion: 90 to 92 °C

Prompt: Can you share its melting point? I mean this molecule: Cc1cc(Br)c(O)c(C(=O)O)c1
Completion: 201 to 203 °C

Prompt: Can you share its melting point? I mean this molecule: Cn1cc(C(=O)O)c(Cl)n1
Completion: 209 to 211 °C

Prompt: Can you share its melting point? I mean this molecule: CC1CC(C)CN(C(=O)c2ccccc2N)C1 (stereo not drawn)
Completion: 97 to 99 °C

Prompt: Can you share its melting point? I mean this molecule: O=C(O)Cn1cc([N+](=O)[O-])cn1
Completion: 153 to 155 °C

Next:
Prompt: Can you share its melting point? I mean this molecule: CCNC(=O)CN(CC)C(=O)CCl
Completion: 246 to 248 °C

Prompt: Can you share its melting point? I mean this molecule: N#Cc1ccc(CN2CCc3ccccc32)cc1
Completion: 76 to 78 °C

Prompt: Can you share its melting point? I mean this molecule: O=C(CN1C(=O)CCC1=O)c1ccccc1Cl
Completion: 118 to 120 °C

----------
readout: melting point

Below are worked cases with known answers.
Prompt: Can you share its melting point? I mean this compound: CNc1nc(S)nc2ccccc12
Completion: 220 to 222 °C

Prompt: Can you share its melting point? I mean this compound: O=[N+]([O-])c1c(Cl)ccc2ncccc12
Completion: 119 to 121 °C

Prompt: Can you share its melting point? I mean this compound: CC1=CC=CC(=C2Nc3cc(F)ccc3N2C2CC2)C1=N
Completion: 149 to 151 °C

Prompt: Can you share its melting point? I mean this compound: Fc1ccc2nc(NCc3ccccc3)sc2c1
Completion: 182 to 184 °C

Prompt: Can you share its melting point? I mean this compound: Cc1[nH]cnc1CO
Completion: 233 to 235 °C

Prompt: Can you share its melting point? I mean this compound: O=C(CBr)c1ccc(S(=O)(=O)N2CCCCC2)cc1
Completion: 108 to 110 °C

Prompt: Can you share its melting point? I mean this compound: Sc1ncc(-c2ccc(Cl)cc2)n1-c1ccccc1
Completion: 283 to 285 °C

Prompt: Can you share its melting point? I mean this compound: O=[N+]([O-])c1ccc(Cl)cc1I
Completion: 62 to 64 °C

Next:
Prompt: Can you share its melting point? I mean this compound: COC(=O)CN1CCC(C(N)=O)CC1
Completion: 126 to 128 °C

----------
Consider the following compounds and their measured melting point readings.

Prompt: Can you share its melting point? I mean this compound: CN(C)S(=O)(=O)c1ccc(CCl)o1
Completion: 54 to 56 °C

Prompt: Can you share its melting point? I mean this compound: O=C(O)c1ccc(S(=O)(=O)NC2CC2)cc1
Completion: 243 to 245 °C

Prompt: Can you share its melting point? I mean this compound: CC(O)C(NC(=O)C1CCCC1)C(=O)O (stereo unspecified)
Completion: 145 to 147 °C

Next:
Prompt: Can you share its melting point? I mean this compound: COC(=O)c1cc2c(nc1N)CCCC2
Completion: 126 to 128 °C

Prompt: Can you share its melting point? I mean this compound: O=C(O)c1ccc(Oc2ccc(Oc3ccccc3)cc2)nc1
Completion: 152 to 154 °C

----------
Consider the following molecules and their measured melting point readings.

Prompt: Can you share its melting point? I mean this molecule: c1ccc(-c2cncc(-c3ccccc3)n2)cc1
Completion: 86 to 88 °C

Prompt: Can you share its melting point? I mean this molecule: CC(Cl)C(=O)N(c1nccs1)C1CCCCC1 (configuration not stated)
Completion: 82 to 84 °C

Prompt: Can you share its melting point? I mean this molecule: O=S(=O)(Cl)/C=C/c1ccccc1
Completion: 80 to 88 °C

Prompt: Can you share its melting point? I mean this molecule: NC(=O)CN1CC(O)CC1=O (configuration not stated)
Completion: 133 to 135 °C

Prompt: Can you share its melting point? I mean this molecule: Cc1cccc(-n2c(C)cc(C(=O)O)c2C)c1
Completion: 194 to 196 °C

Prompt: Can you share its melting point? I mean this molecule: Nc1cc(S(N)(=O)=O)ccc1F
Completion: 134 to 136 °C

----------
Consider the following molecules and their measured melting point readings.

Below are worked cases with known answers.
Prompt: Can you share its melting point? I mean this molecule: CCOC(=O)c1oc2ccccc2c1CBr
Completion: 77 to 79 °C

Prompt: Can you share its melting point? I mean this molecule: CC(CC(=O)c1cccc(F)c1)C(=O)O (configuration not stated)
Completion: 96 to 98 °C

Prompt: Can you share its melting point? I mean this molecule: O=[N+]([O-])c1ccc(S(=O)(=O)Cl)cc1Br
Completion: 59 to 61 °C

Prompt: Can you share its melting point? I mean this molecule: CCc1nnc(S)n1N
Completion: 143 to 145 °C

Prompt: Can you share its melting point? I mean this molecule: O=C(O)c1cc2cc(Br)sc2[nH]1
Completion: 164 to 166 °C

Next:
Prompt: Can you share its melting point? I mean this molecule: COc1ccc(C#N)cc1C
Completion: 49 to 51 °C

Prompt: Can you share its melting point? I mean this molecule: O=[N+]([O-])c1ccc(Cl)c(S(=O)(=O)Nc2nc3ccc(Cl)cc3s2)c1
Completion: 328 to 330 °C

----------
readout: melting point

Below are worked cases with known answers.
Prompt: Can you share its melting point? I mean this molecule: O=C(c1ccccn1)c1cc2ccccc2o1
Completion: 96 to 98 °C

Prompt: Can you share its melting point? I mean this molecule: CCOC(=O)c1cc2c(nc1N)CCN(C)C2
Completion: 146 to 148 °C

Prompt: Can you share its melting point? I mean this molecule: Nc1nnc2ccc(Cl)nn12
Completion: 274 to 276 °C

Next:
Prompt: Can you share its melting point? I mean this molecule: CCOc1cc(C(=O)O)ccc1OCC(=O)N1CCCCC1
Completion: 129 to 131 °C

Prompt: Can you share its melting point? I mean this molecule: CON=C(C(=O)N[C@@H]1C(=O)N2C(C(=O)O)=C(CSc3nnnn3C)CS[C@H]12)c1csc(N)n1
Completion: 159 to 161 °C

Prompt: Can you share its melting point? I mean this molecule: CCCc1ccc(N)c(C(=O)O)c1
Completion: 116 to 118 °C

Prompt: Can you share its melting point? I mean this molecule: CC(=O)Nc1[nH]c(=O)ccc1[N+](=O)[O-]
Completion: 182 to 184 °C

Prompt: Can you share its melting point? I mean this molecule: Sc1nnnc2ccccc12
Completion: 183 to 185 °C

Prompt: Can you share its melting point? I mean this molecule: CCOc1ccc(C(C)=O)cc1CCl
Completion: 80 to 82 °C

Prompt: Can you share its melting point? I mean this molecule: CC(=O)Nc1ccc(NS(C)(=O)=O)c(C(=O)O)c1
Completion: 265 to 267 °C

Prompt: Can you share its melting point? I mean this molecule: CN1CCN(Cc2cccc(N)c2)CC1
Completion: 78 to 80 °C

Prompt: Can you share its melting point? I mean this molecule: Cc1nonc1N
Completion: 56 to 58 °C

Prompt: Can you share its melting point? I mean this molecule: COc1ccc(Cn2c(N)nc3ccccc32)cn1
Completion: 173 to 175 °C

----------
readout: melting point

Below are worked cases with known answers.
Prompt: Can you share its melting point? I mean this molecule: COc1cc2c(cc1NC(=O)OCC(F)(F)F)oc1ccccc12
Completion: 122 to 124 °C

Prompt: Can you share its melting point? I mean this molecule: Cc1ccccc1-n1c(S)nc2scc(-c3ccccc3)c2c1=O
Completion: 157 to 159 °C

Prompt: Can you share its melting point? I mean this molecule: O=C(O)CCOc1ccc([N+](=O)[O-])cc1
Completion: 116 to 118 °C

Next:
Prompt: Can you share its melting point? I mean this molecule: Cc1ccc(-c2nc(CCl)co2)cc1
Completion: 97 to 99 °C

Prompt: Can you share its melting point? I mean this molecule: CNC(CO)c1ccc(OC)cc1 (stereo not given)
Completion: 57 to 59 °C

Prompt: Can you share its melting point? I mean this molecule: NC(=O)CCc1ccc([N+](=O)[O-])cc1[N+](=O)[O-]
Completion: 115 to 117 °C

Prompt: Can you share its melting point? I mean this molecule: Nc1ccc(Sc2ccc(C(F)(F)F)cc2)cc1
Completion: 93 to 95 °C

Prompt: Can you share its melting point? I mean this molecule: Nc1nc(-c2ccccc2Cl)cs1
Completion: 142 to 144 °C

Prompt: Can you share its melting point? I mean this molecule: CCOC(=O)C(C)(C#N)Cc1ccncc1 (stereo not given)
Completion: 56 to 58 °C

Prompt: Can you share its melting point? I mean this molecule: CC(C)(C)c1ccc(-c2nnc(CCl)o2)cc1
Completion: 65 to 67 °C
